The entries below are paired with their reported Kb.
test_system: UniProtKB P20309
assay_notes: Antagonist activity at human recombinant muscarinic M3 receptor expressed in CHO cells assessed as inhibition of acetylcholine-induced intracellular Ca2+ mobilization by FLIPR assay
Format: functional, cell-based
experimental_setup: read-out: pA2 (converted)
measured_quantity: Kb (nM)

# compound, units_label, measured_number
rows = [
    ("CC(C)NC(=O)c1ccc(NC(=O)N[C@@H](Cc2ccc(O)cc2)C(=O)N[C@H]2CCC[N+](C)(Cc3ccc(O)cc3)C2)cc1 (stereo not given in full)", "nM", 0.631),
    ("Cc1noc(-c2ccc(NC(=O)N[C@@H](Cc3ccc(O)cc3)C(=O)N[C@H]3CCC[N+](C)(Cc4ccc(O)cc4)C3)cc2)n1 (stereo not given in full)", "nM", 2),
    ("C=CC[N+]1(Cc2cccc(O)c2)CCC[C@H](NC(=O)[C@H](Cc2ccc(O)cc2)NC(=O)Nc2ccc(C(=O)OC(C)C)cc2)C1 (stereo not given in full)", "nM", 0.1),
    ("CC(C)OC(=O)c1ccc(NC(=O)N[C@@H](Cc2ccc(O)cc2)C(=O)N[C@H]2CCC[N+]3(CCCCCC3)C2)cc1", "nM", 3.16),
    ("CC(C)OC(=O)c1ccc(NC(=O)N[C@@H](Cc2ccc(O)cc2)C(=O)N[C@H]2CCC[N+](CC3CC3)(CC3CC3)C2)cc1", "nM", 0.631),
]

----------
test_system: Muscarinic acetylcholine receptor M3 (Homo sapiens, UniProt P20309)
Sequence (P20309 whole entry): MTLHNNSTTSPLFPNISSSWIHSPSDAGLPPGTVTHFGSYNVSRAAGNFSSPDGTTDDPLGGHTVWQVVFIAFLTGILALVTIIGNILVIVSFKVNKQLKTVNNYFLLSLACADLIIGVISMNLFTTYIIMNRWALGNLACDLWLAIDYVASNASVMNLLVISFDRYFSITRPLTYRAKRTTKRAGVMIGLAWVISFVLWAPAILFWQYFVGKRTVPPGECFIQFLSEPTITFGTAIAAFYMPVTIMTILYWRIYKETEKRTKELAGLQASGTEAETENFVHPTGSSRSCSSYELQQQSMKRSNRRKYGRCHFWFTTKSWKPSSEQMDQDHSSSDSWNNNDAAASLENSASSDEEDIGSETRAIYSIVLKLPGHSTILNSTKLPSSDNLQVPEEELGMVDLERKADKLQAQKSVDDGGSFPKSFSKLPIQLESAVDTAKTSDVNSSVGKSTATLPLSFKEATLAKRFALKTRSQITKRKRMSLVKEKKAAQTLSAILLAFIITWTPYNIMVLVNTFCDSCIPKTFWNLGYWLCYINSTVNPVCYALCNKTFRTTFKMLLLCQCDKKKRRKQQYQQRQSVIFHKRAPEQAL
assay_notes: Antagonist activity at human recombinant muscarinic M3 receptor expressed in CHO cells assessed as inhibition of acetylcholine-induced intracellular Ca2+ mobilization by FLIPR assay

# compound, IC50 / nM
data = [
    ("CCOC(=O)c1ccc(NC(=O)N[C@@H](Cc2ccc(O)cc2)C(=O)NC2CCN(Cc3ccccc3)C2)cc1 (some centres not stated)", 15.8),
    ("CCOC(=O)c1ccc(NC(=O)N[C@@H](Cc2ccc(Br)cc2)C(=O)N[C@H]2CC[N+](C)(Cc3ccc4c(c3)OCO4)C2)cc1 (some centres not stated)", 12.6),
    ("CC(C)OC(=O)c1ccc(NC(=O)N[C@@H](Cc2ccc(O)cc2)C(=O)NC2CCN(Cc3ccc(O)cc3)C2)cc1 (some centres not stated)", 5.01),
    ("CCOC(=O)c1ccc(NC(=O)N[C@@H](Cc2ccc(OC)c(OC)c2)C(=O)N[C@H]2CC[N+](C)(Cc3ccc4c(c3)OCO4)C2)cc1 (some centres not stated)", 1260),
    ("CCOC(=O)c1ccc(NC(=O)N[C@@H](Cc2ccc(Cl)cc2)C(=O)N[C@H]2CC[N+](C)(Cc3ccc4c(c3)OCO4)C2)cc1 (some centres not stated)", 10),
    ("CCOC(=O)c1ccc(NC(=O)N[C@@H](Cc2ccc(C)cc2)C(=O)N[C@H]2CC[N+](C)(Cc3ccc4c(c3)OCO4)C2)cc1 (some centres not stated)", 15.8),
    ("CCOC(=O)c1ccc(NC(=O)N[C@@H](Cc2ccc(OC)cc2)C(=O)N[C@H]2CC[N+](C)(Cc3ccc4c(c3)OCO4)C2)cc1 (some centres not stated)", 39.8),
    ("CCOC(=O)c1ccc(NC(=O)N[C@@H](Cc2ccc(O)cc2)C(=O)NC2CCN(CC3CC3)C2)cc1 (some centres not stated)", 25.1),
    ("CCOC(=O)c1ccc(NC(=O)N[C@@H](Cc2ccc(N)cc2)C(=O)N[C@H]2CC[N+](C)(Cc3ccc4c(c3)OCO4)C2)cc1 (some centres not stated)", 15.8),
    ("CCOC(=O)c1ccc(NC(=O)N[C@@H](Cc2ccc(O)cc2)C(=O)NC2CCN(Cc3ccc4c(c3)OCO4)C2)cc1 (some centres not stated)", 31.6),
    ("CCCNC(=O)c1ccc(NC(=O)N[C@@H](Cc2ccc(O)cc2)C(=O)NC2CCN(Cc3ccc(C#N)cc3)C2)cc1 (some centres not stated)", 501),
    ("CCOC(=O)c1ccc(NC(=O)N[C@@H](Cc2ccc(O)cc2)C(=O)NC2CCN(CC)C2)cc1 (some centres not stated)", 794),
    ("CCOC(=O)c1ccc(NC(=O)N[C@@H](Cc2ccc(O)cc2)C(=O)NC2CCN(Cc3cccc(C#N)c3)C2)cc1 (some centres not stated)", 6.31),
    ("CCOC(=O)c1ccc(NC(=O)N[C@@H](Cc2ccc(C(F)(F)F)cc2)C(=O)N[C@H]2CC[N+](C)(Cc3ccc4c(c3)OCO4)C2)cc1 (some centres not stated)", 31.6),
    ("CCOC(=O)c1ccc(NC(=O)N[C@@H](Cc2ccc(Cl)c(Cl)c2)C(=O)N[C@H]2CC[N+](C)(Cc3ccc4c(c3)OCO4)C2)cc1 (some centres not stated)", 25.1),
    ("CCOC(=O)c1ccc(NC(=O)N[C@@H](Cc2ccc(-c3ccccc3)cc2)C(=O)N[C@H]2CC[N+](C)(Cc3ccc4c(c3)OCO4)C2)cc1 (some centres not stated)", 15.8),
    ("CCOC(=O)c1ccc(NC(=O)N[C@@H](Cc2ccc(O)cc2)C(=O)NC2CCN(Cc3cccc(O)c3)C2)cc1 (some centres not stated)", 20),
    ("CCOC(=O)c1ccc(NC(=O)N[C@@H](Cc2ccc(O)cc2)C(=O)NC2CCN(Cc3ccccc3OC)C2)cc1 (some centres not stated)", 50.1),
    ("COC(=O)c1ccc(NC(=O)N[C@@H](Cc2ccc(O)cc2)C(=O)NC2CCN(Cc3ccc(O)cc3)C2)cc1 (some centres not stated)", 25.1),
    ("CCN(CC)C(=O)c1ccc(NC(=O)N[C@@H](Cc2ccc(O)cc2)C(=O)NC2CCN(Cc3ccc(C#N)cc3)C2)cc1 (some centres not stated)", 398),
    ("CCOC(=O)c1ccc(NC(=O)N[C@@H](Cc2ccccc2Cl)C(=O)N[C@H]2CC[N+](C)(Cc3ccc4c(c3)OCO4)C2)cc1 (some centres not stated)", 126),
    ("CCOC(=O)c1ccc(NC(=O)N[C@@H](Cc2ccc(O)cc2)C(=O)N[C@H]2CC[N+](C)(Cc3ccc(O)cc3)C2)cc1 (some centres not stated)", 6.31),
    ("CCOC(=O)c1ccc(NC(=O)N[C@@H](Cc2cccc(Cl)c2)C(=O)N[C@H]2CC[N+](C)(Cc3ccc4c(c3)OCO4)C2)cc1 (some centres not stated)", 7.94),
    ("CCOC(=O)c1ccc(NC(=O)N[C@@H](Cc2ccc(O)cc2)C(=O)N[C@H]2CCC[N+](C)(Cc3ccc(F)cc3)C2)cc1 (some centres not stated)", 2),
    ("CCCOC(=O)c1ccc(NC(=O)N[C@@H](Cc2ccc(O)cc2)C(=O)NC2CCN(Cc3ccc(O)cc3)C2)cc1 (some centres not stated)", 10),
    ("N#Cc1ccc(CN2CCC(NC(=O)[C@H](Cc3ccc(O)cc3)NC(=O)Nc3ccc(C(=O)Nc4ccccc4)cc3)C2)cc1 (some centres not stated)", 501),
    ("CCOC(=O)c1ccc(NC(=O)N[C@@H](Cc2ccc(F)cc2)C(=O)N[C@H]2CC[N+](C)(Cc3ccc4c(c3)OCO4)C2)cc1 (some centres not stated)", 15.8),
]

----------
The entries below are paired with their reported log10 IC50.
test_system: Muscarinic acetylcholine receptor M2 (Homo sapiens, UniProt P08172)
Sequence (P08172 whole entry): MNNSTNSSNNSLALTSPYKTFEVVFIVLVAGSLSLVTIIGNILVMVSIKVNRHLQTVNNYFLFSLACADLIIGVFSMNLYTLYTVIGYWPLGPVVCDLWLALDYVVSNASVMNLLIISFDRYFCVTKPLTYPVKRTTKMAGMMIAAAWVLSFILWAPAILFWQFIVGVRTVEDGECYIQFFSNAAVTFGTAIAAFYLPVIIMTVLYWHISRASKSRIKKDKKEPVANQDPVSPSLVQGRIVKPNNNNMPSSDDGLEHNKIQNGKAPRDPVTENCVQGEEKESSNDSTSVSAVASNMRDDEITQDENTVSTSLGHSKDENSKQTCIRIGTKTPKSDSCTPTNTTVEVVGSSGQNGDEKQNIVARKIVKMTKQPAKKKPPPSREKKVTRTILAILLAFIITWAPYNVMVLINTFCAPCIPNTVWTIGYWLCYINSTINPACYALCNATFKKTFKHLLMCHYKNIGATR
assay_notes: Antagonist activity at human recombinant muscarinic M2 receptor expressed in CHO cells coexpressing chimeric G protein Gqi5 assessed as inhibition of acetylcholine-induced intracellular Ca2+ mobilization by FLIPR assay
measured_quantity: log10 IC50 (log10 of the value in nM)

# compound, test_system, measured_quantity, measured_number
rows = [
    ("CCOC(=O)c1ccc(NC(=O)N[C@@H](Cc2ccc(C#N)cc2)C(=O)N[C@H]2CC[N+](C)(Cc3ccc4c(c3)OCO4)C2)cc1 (some centres not stated)", "Muscarinic acetylcholine receptor M2 (Homo sapiens, UniProt P08172)", "log10 IC50", 1.10),
    ("CCOC(=O)c1ccc(NC(=O)N[C@@H](Cc2ccc(OC)c(OC)c2)C(=O)N[C@H]2CC[N+](C)(Cc3ccc4c(c3)OCO4)C2)cc1 (some centres not stated)", "Muscarinic acetylcholine receptor M2 (Homo sapiens, UniProt P08172)", "log10 IC50", 1.70),
    ("CCOC(=O)c1ccc(NC(=O)N[C@@H](Cc2ccc(Cl)cc2)C(=O)N[C@H]2CC[N+](C)(Cc3ccc4c(c3)OCO4)C2)cc1 (some centres not stated)", "Muscarinic acetylcholine receptor M2 (Homo sapiens, UniProt P08172)", "log10 IC50", 0.80),
    ("O=C(Nc1ccc(C(=O)OCC2CC2)cc1)N[C@@H](Cc1ccc(O)cc1)C(=O)NC1CCN(Cc2ccc(O)cc2)C1 (some centres not stated)", "Muscarinic acetylcholine receptor M2 (Homo sapiens, UniProt P08172)", "log10 IC50", 2.60),
    ("CCOC(=O)c1ccc(NC(=O)N[C@@H](Cc2ccc(Cl)c(Cl)c2)C(=O)N[C@H]2CC[N+](C)(Cc3ccc4c(c3)OCO4)C2)cc1 (some centres not stated)", "Muscarinic acetylcholine receptor M2 (Homo sapiens, UniProt P08172)", "log10 IC50", 1.10),
    ("CCOC(=O)c1ccc(NC(=O)N[C@@H](Cc2ccc(O)cc2)C(=O)NC2CCN(Cc3ccc(OC)cc3)C2)cc1 (some centres not stated)", "Muscarinic acetylcholine receptor M2 (Homo sapiens, UniProt P08172)", "log10 IC50", 2.40),
    ("CCOC(=O)c1ccc(NC(=O)N[C@@H](Cc2ccc(O)cc2)C(=O)NC2CCN(Cc3cccc(Cl)c3)C2)cc1 (some centres not stated)", "Muscarinic acetylcholine receptor M2 (Homo sapiens, UniProt P08172)", "log10 IC50", 2.10),
]
